- Subject Of Test: Large subunit-rSCFV5 fusion protein
- Sequence (chain, as listed by the source): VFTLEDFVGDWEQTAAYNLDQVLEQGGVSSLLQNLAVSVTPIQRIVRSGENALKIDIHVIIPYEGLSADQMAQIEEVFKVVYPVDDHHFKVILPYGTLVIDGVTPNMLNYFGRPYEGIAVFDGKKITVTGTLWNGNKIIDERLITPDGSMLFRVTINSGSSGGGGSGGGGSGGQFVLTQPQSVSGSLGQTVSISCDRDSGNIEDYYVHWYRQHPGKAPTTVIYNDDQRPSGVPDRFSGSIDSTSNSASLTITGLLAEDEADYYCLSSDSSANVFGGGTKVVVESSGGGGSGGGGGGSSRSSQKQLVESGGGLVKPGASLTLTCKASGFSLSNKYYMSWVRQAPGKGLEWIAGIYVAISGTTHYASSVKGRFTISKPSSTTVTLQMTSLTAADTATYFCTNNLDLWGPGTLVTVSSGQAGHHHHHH
- Assay Procedure: cell-based or functional assay
Property Label: normalised luminescence at PCT 10 pg/ml

[[record]]
binder = "VSGWRIHEKIS (peptide, part only; not given: rSCFV18 scFv part, part only) [rSCFV18-small subunit mutant fusion protein RA120]"
meas_value = 5860

[[record]]
binder = "VDGWRLHEKIS (peptide, part only; not given: rSCFV18 scFv part, part only) [rSCFV18-small subunit mutant fusion protein RA141]"
meas_value = 6020

[[record]]
binder = "VEGYRLFDKKW (peptide, part only; not given: rSCFV18 scFv part, part only) [rSCFV18-small subunit mutant fusion protein RB239]"
meas_value = 5990

[[record]]
binder = "VEGYRLFNKEW (peptide, part only; not given: rSCFV18 scFv part, part only) [rSCFV18-small subunit mutant fusion protein RB284]"
meas_value = 5530

